Numbers sourced from ChEMBL document CHEMBL1641593.

Procedure Summary: Toxicity in Candida albicans B311 ATCC 32354-infected ip dosed mouse administered qd for 3 days
Assay type: organism-based
Test Parameters: in vivo
Measurement Name: MTD at 72 h

Consider the compound COc1ccc2cc3sc4ccccc4c3[n+](C)c2c1.O=S(=O)([O-])C(F)(F)F . State its measured MTD at 72 h.
10 mg/kg

----------
Tested on: Aspergillus fumigatus
Procedure Summary: Antifungal activity against Aspergillus fumigatus ATCC 90906 by CLSI method
Assay type: functional, organism-based
I'd be grateful if you could share measured MIC for these entries.
Please state the figure in µg/mL; there is no need to write the unit.

Please give measured MIC of the following entry: COc1cccc2cc3sc4ccccc4c3[n+](C)c12.O=S(=O)([O-])C(F)(F)F
5

Read off the recorded MIC for COc1cccc2c1sc1cc3ccccc3[n+](C)c12.[I-]
5
